- System Name: UniProt P56450
- Method: Functional bioassay, CRE/β-galactosidase reporter in HEK-293 cells stably expressing mMC4R
Where a SMILES comes first, the peptide text is derived from it. Bridges are numbered along the chain shown (N, C = ends). [ ]: non-standard residue; d: D form.
Readout: Kb
# include the unit after the value

Sample C[C@@H]1NC(=O)[C@H](CC(N)=O)NC(=O)[C@@H](Cc2ccccc2)NC(=O)[C@H](Cc2ccccc2)NC(=O)[C@H](CCCNC(=N)N)NC(=O)[C@@H](NC(=O)[C@@H](N)Cc2ccc(O)cc2)CSSC[C@@H](C(=O)N[C@@H](Cc2ccc(O)cc2)C(N)=O)NC(=O)[C@H](Cc2ccccc2)NC1=O [SEQ ID NO: 1] (H-YCRF[dF]NAFCY-NH2; disulfide 2-9) — what was its Kb?
0.794 µM

---

- System Name: mMC5R (Mus musculus, UniProt P41149)
- Sequence (P41149 whole entry): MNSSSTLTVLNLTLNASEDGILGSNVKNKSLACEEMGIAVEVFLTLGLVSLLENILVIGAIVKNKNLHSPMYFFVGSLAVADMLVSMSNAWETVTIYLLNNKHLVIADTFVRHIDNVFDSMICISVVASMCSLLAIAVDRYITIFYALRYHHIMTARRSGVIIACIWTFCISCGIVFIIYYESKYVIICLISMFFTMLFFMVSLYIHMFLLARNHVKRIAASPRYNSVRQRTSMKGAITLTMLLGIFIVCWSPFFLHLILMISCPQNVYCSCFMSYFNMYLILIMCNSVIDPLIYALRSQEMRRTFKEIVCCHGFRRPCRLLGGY
- Method: Functional bioassay, CRE/β-galactosidase reporter in HEK-293 cells stably expressing mMC5R
- Details: slight agonist = some stimulatory response at 100 μM, not enough to determine an EC50
Where a SMILES comes first, the peptide text is derived from it. Bridges are numbered along the chain shown (N, C = ends). [ ]: non-standard residue; d: D form. Nle = CCCC[C@H](N)C(=O)O

{"Compound": "CCCC[C@H](NC(=O)[C@H](CO)NC(=O)[C@H](Cc1ccc(O)cc1)NC(=O)[C@H](CO)NC(C)=O)C(=O)N[C@@H](CCC(=O)O)C(=O)N[C@@H](Cc1c[nH]cn1)C(=O)N[C@@H](CCCNC(=N)N)C(=O)N[C@@H](Cc1ccccc1)C(=O)N[C@H](Cc1ccccc1)C(=O)NCC(=O)N[C@@H](CCCCN)C(=O)N1CCC[C@H]1C(=O)N[C@H](C(N)=O)C(C)C [SEQ ID NO: 18] (Ac-SYS[Nle]EHRF[dF]GKPV-NH2)", "pharmacology in words at mMC5R": "Slight agonist"}
{"Compound": "CCCC[C@H](NC(C)=O)C(=O)N[C@H]1CC(=O)NCCCC[C@@H](C(N)=O)NC(=O)[C@@H](Cc2ccccc2)NC(=O)[C@H](Cc2ccccc2)NC(=O)[C@H](CCCNC(=N)N)NC(=O)[C@H](Cc2c[nH]cn2)NC1=O [SEQ ID NO: 23, Ac-Nle-c[Asp-His-Arg-Phe-DPhe-Lys]] (Ac-[Nle]DHRF[dF]K-NH2; lactam 2-7)", "pharmacology in words at mMC5R": "Slight agonist"}
{"Compound": "CCCC[C@H](NC(=O)[C@H](CO)NC(=O)[C@H](Cc1ccc(O)cc1)NC(=O)[C@H](CO)NC(C)=O)C(=O)N[C@@H](CCC(=O)O)C(=O)N[C@@H](Cc1c[nH]cn1)C(=O)N[C@H](CCCNC(=N)N)C(=O)N[C@@H](Cc1ccccc1)C(=O)N[C@@H](Cc1ccccc1)C(=O)NCC(=O)N[C@@H](CCCCN)C(=O)N1CCC[C@H]1C(=O)N[C@H](C(N)=O)C(C)C [SEQ ID NO: 16] (Ac-SYS[Nle]EH[dR]FFGKPV-NH2)", "pharmacology in words at mMC5R": "Slight agonist"}

---

- System Name: mMC4R (Mus musculus, UniProt P56450)
- Sequence (P56450 whole entry): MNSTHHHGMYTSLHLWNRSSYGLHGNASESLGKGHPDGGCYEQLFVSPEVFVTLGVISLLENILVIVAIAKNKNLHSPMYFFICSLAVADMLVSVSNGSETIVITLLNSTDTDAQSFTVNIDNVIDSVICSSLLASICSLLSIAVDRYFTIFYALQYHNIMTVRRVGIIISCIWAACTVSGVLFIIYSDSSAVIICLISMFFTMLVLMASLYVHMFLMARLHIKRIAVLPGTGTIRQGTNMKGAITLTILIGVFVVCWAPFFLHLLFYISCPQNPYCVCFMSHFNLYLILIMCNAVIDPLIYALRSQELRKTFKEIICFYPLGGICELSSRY
- Method: Functional bioassay, CRE/β-galactosidase reporter in HEK-293 cells stably expressing mMC4R
pEC50: −log10 of the molar value. Where a SMILES comes first, the peptide text is derived from it. [ ]: non-standard residue; d: D form. Nle = CCCC[C@H](N)C(=O)O
Readout: pEC50

Sample CCCC[C@H](NC(=O)[C@H](CO)NC(=O)[C@H](Cc1ccc(O)cc1)NC(=O)[C@H](CO)NC(C)=O)C(=O)N[C@@H](CCC(=O)O)C(=O)N[C@@H](Cc1c[nH]cn1)C(=O)N[C@@H](CCCNC(=N)N)C(=O)N[C@@H](Cc1ccccc1)C(=O)N[C@H](Cc1ccccc1)C(=O)NCC(=O)N[C@@H](CCCCN)C(=O)N1CCC[C@H]1C(=O)N[C@H](C(N)=O)C(C)C [SEQ ID NO: 18] (Ac-SYS[Nle]EHRF[dF]GKPV-NH2) — what was its pEC50?
< 4.00

---

- System Name: mMC4R (Mus musculus, UniProt P56450)
- Method: Functional bioassay, CRE/β-galactosidase reporter in HEK-293 cells stably expressing mMC4R
Where a SMILES comes first, the peptide text is derived from it. Bridges are numbered along the chain shown (N, C = ends). [ ]: non-standard residue; d: D form. Nle = CCCC[C@H](N)C(=O)O; Dap = NC[C@H](N)C(=O)O
Readout: EC50

// below: answered molecules
{"Molecule": "CCCC[C@H](NC(=O)[C@H](CO)NC(=O)[C@H](Cc1ccc(O)cc1)NC(=O)[C@H](CO)NC(C)=O)C(=O)N[C@@H](CCC(=O)O)C(=O)N[C@@H](Cc1c[nH]cn1)C(=O)N[C@H](CCCNC(=N)N)C(=O)N[C@@H](Cc1ccccc1)C(=O)N[C@@H](Cc1ccccc1)C(=O)NCC(=O)N[C@@H](CCCCN)C(=O)N1CCC[C@H]1C(=O)N[C@H](C(N)=O)C(C)C [SEQ ID NO: 16] (Ac-SYS[Nle]EH[dR]FFGKPV-NH2)", "EC50": "> 100 µM"}
{"Molecule": "CCCC[C@H](NC(C)=O)C(=O)N[C@H]1CC(=O)NCCCC[C@@H](C(N)=O)NC(=O)[C@H](Cc2ccccc2)NC(=O)[C@H](Cc2ccccc2)NC(=O)[C@H](CCCNC(=N)N)NC(=O)[C@H](Cc2c[nH]cn2)NC1=O [SEQ ID NO: 20, Ac-Nle-c[Asp-His-Arg-Phe-Phe-Lys]] (Ac-[Nle]DHRFFK-NH2; lactam 2-7; C-terminus assumed)", "EC50": "> 100 µM"}
{"Molecule": "CCCC[C@H](NC(=O)[C@H](CO)NC(=O)[C@H](Cc1ccc(O)cc1)NC(=O)[C@H](CO)NC(C)=O)C(=O)N[C@@H](CCC(=O)O)C(=O)N[C@@H](Cc1ccccc1)C(=O)N[C@@H](Cc1ccccc1)C(=O)N[C@@H](CCCNC(=N)N)C(=O)NCC(=O)N[C@@H](CCCCN)C(=O)N1CCC[C@H]1C(=O)N[C@H](C(N)=O)C(C)C [SEQ ID NO: 13] (Ac-SYS[Nle]EFFRGKPV-NH2)", "EC50": "> 100 µM"}

Sample C[C@@H]1NC(=O)[C@H](C)NC(=O)[C@@H](NC(=O)[C@@H](N)Cc2ccc(O)cc2)CC(=O)NC[C@@H](C(=O)N[C@@H](Cc2ccc(O)cc2)C(N)=O)NC(=O)[C@H](Cc2ccccc2)NC(=O)[C@H](C)NC(=O)[C@H](CC(N)=O)NC(=O)[C@H](C)NC1=O [SEQ ID NO: 2] (H-YDAAANAF[Dap]Y-NH2; lactam 2-9) — what was its EC50?
> 100 µM

Sample C[C@@H]1NC(=O)[C@H](CC(N)=O)NC(=O)[C@H](Cc2c[nH]c3ccccc23)NC(=O)[C@H](CCCNC(=N)N)NC(=O)[C@@H](Cc2ccccc2)NC(=O)[C@@H](NC(=O)[C@@H](N)Cc2ccc(O)cc2)CC(=O)NC[C@@H](C(=O)N[C@@H](Cc2ccc(O)cc2)C(N)=O)NC(=O)[C@H](Cc2ccccc2)NC1=O [SEQ ID NO: 7] (H-YD[dF]RWNAF[Dap]Y-NH2; lactam 2-9) — what was its EC50?
0.45 µM

Sample CCCC[C@H](NC(C)=O)C(=O)N[C@H]1CC(=O)NCCCC[C@@H](C(N)=O)NC(=O)[C@@H](Cc2ccccc2)NC(=O)[C@H](Cc2ccccc2)NC(=O)[C@H](CCCNC(=N)N)NC(=O)[C@H](Cc2c[nH]cn2)NC1=O [SEQ ID NO: 23, Ac-Nle-c[Asp-His-Arg-Phe-DPhe-Lys]] (Ac-[Nle]DHRF[dF]K-NH2; lactam 2-7) — what was its EC50?
> 100 µM

Sample CCCC[C@H](NC(C)=O)C(=O)N[C@H]1CC(=O)NCCCC[C@@H](C(N)=O)NC(=O)[C@H](Cc2ccccc2)NC(=O)[C@H](Cc2ccccc2)NC(=O)[C@@H](CCCNC(=N)N)NC(=O)[C@H](Cc2c[nH]cn2)NC1=O [SEQ ID NO: 21, Ac-Nle-c[Asp-His-DArg-Phe-Phe-Lys]] (Ac-[Nle]DH[dR]FFK-NH2; lactam 2-7) — what was its EC50?
> 100 µM

Sample C[C@@H]1NC(=O)[C@H](CC(N)=O)NC(=O)[C@H](Cc2c[nH]c3ccccc23)NC(=O)[C@H](CCCNC(=N)N)NC(=O)[C@@H](Cc2cccc3ccccc23)NC(=O)[C@H](Cc2c[nH]cn2)NC(=O)[C@@H](NC(=O)[C@@H](N)Cc2ccc(O)cc2)CC(=O)NC[C@@H](C(=O)N[C@@H](Cc2ccc(O)cc2)C(N)=O)NC(=O)[C@H](Cc2ccccc2)NC1=O — what was its EC50?
0.00057 µM
